TARGET: MCH receptor (Homo sapiens)
Construct: expressed in transfected cells; host or cells: CHO cells
Sequence (Q99705 whole entry): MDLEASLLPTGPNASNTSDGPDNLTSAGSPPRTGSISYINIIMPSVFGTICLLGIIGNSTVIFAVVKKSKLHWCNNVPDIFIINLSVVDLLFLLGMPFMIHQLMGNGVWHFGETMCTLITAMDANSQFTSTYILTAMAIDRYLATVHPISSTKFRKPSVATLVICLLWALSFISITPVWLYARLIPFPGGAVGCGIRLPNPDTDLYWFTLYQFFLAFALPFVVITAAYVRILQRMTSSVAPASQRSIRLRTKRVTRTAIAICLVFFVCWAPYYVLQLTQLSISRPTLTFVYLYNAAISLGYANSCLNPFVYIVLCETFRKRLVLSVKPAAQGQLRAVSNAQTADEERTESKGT
EXPERIMENT NOTES: MCH Receptor Binding Assay
CONDITION: Table 2; membranes from CHO cells expressing the MCH receptor, [125I]-MCH, SPA; read-out: Ki (MCH)
pKi: −log10 of the molar value.

- COMPOUND: "C[C@@H](c1ccc(-c2cccc(C#N)c2)cc1)N(CC(=O)Nc1cc(Cl)cc(Cl)c1)C(=O)CCN1CCCCC1 [Example 44]"
  pKi: 7.74
- COMPOUND: "C[C@@H](c1ccc(-c2cccc(C#N)c2)cc1)N(CC(=O)Nc1cc(Cl)cc(Cl)c1)C(=O)CCNCC1CC1 [Example 46]"
  pKi: 7.66
- COMPOUND: "CC(C)CNCCC(=O)N(CC(=O)Nc1cc(Cl)cc(Cl)c1)[C@@H](C)c1ccc(-c2cccc(C#N)c2)cc1 [Example 50]"
  pKi: 7.47
- COMPOUND: "C[C@@H](c1ccc(-c2cccc(C#N)c2)cc1)N(CC(=O)Nc1cc(Cl)cc(Cl)c1)C(=O)CCNC1CCC1 [Example 48]"
  pKi: 7.55
- COMPOUND: "C[C@@H](c1ccc(-c2cccc(C#N)c2)cc1)N(CC(=O)Nc1cc(Cl)cc(Cl)c1)C(=O)CCNC1CCCC1 [Example 52]"
  pKi: 7.17
- COMPOUND: "CC(c1ccc(-c2cccc(C#N)c2)cc1)N(CC(=O)Nc1cc(Cl)cc(Cl)c1)C(=O)CCN1CC[C@@H](O)C1 (stereo partly drawn) [Example 41]"
  pKi: 7.92

Values compiled from patent US7045636B2.
